# credit: ChEMBL document CHEMBL1142758

Experiment: Protective effect of compound on SNP-induced cell death in SH-SY5Y cells (concentration = 10 uM)
Assay type: functional
Result type: Inhibition (%)
Quick reminder: number only, in %, skip the unit.

> print(dat)
                                   compound  result.type  unit.abbrev  quantitative.result
1  COc1ccc(-c2cc(=O)c3c(O)cc(O)cc3o2)cc1C1=C(O)C=C(O)C2C(=O)C=C(c3ccc(O)cc3)OC12 (stereo not drawn)   Inhibition            %                   11

--- query ---
Exercise: What value of Inhibition has been reported for the following compound? `O=c1cc(-c2ccc(Oc3cc(-c4cc(=O)c5c(O)cc(O)cc5o4)ccc3O)cc2)oc2cc(O)cc(O)c12`
Solution: 9.3
